Kindly state viability, T/C for each of the entries shown.
- System: 945468-187-T-J3-PDC spheroids with HUVEC/MSC, viability
- ASSAY PROTOCOL: Anticancer human tumor 945468-187-T-J3-PDC patient-derived rectal carcinoma cell line growth inhibition [PI3K]
- DETAILS: second compound 0.316 µM; first compound 0.0316 µM; stronger effect = lower value
Answers are plain numbers, in %.

Record excerpt, results attached:
# COMPOUND, VALUE OBSERVED
measured = [
    ("CC(C)NCC(C(=O)N1CCN(c2ncnc3c2C(C)CC3O)CC1)c1ccc(Cl)cc1 (stereo not given) + CC(Nc1ncnc2nc[nH]c12)c1cc2cccc(Cl)c2c(=O)n1-c1ccccc1", 97.2),
    ("CC(=O)c1c(C)c2cnc(Nc3ccc(N4CCNCC4)cn3)nc2n(C2CCCC2)c1=O + CC(Nc1ncnc2nc[nH]c12)c1cc2cccc(Cl)c2c(=O)n1-c1ccccc1", 99.3),
    ("CC(C)n1nc(-c2ccc3oc(N)nc3c2)c2c(N)ncnc21 + COc1c(OCCCN2CCOCC2)ccc2c3n(c(=NC(=O)c4cnc(N)nc4)nc12)CCN3", 16.6),
    ("C[C@@H](NC(=O)c1ncnc(N)c1Cl)c1ncc(C(=O)Nc2cc(C(F)(F)F)c(Cl)cn2)s1 + Cc1nc(NC(=O)N2CCCC2C(N)=O)sc1-c1ccnc(C(C)(C)C(F)(F)F)c1", 95.8),
]

Consider now this further compound.
Incoming: # viability, T/C lookup, item CNC(=O)c1ccc(N2C(=S)N(c3ccc(C#N)c(C(F)(F)F)c3)C(=O)C2(C)C)cc1F + Cc1nc(NC(=O)N2CCCC2C(N)=O)sc1-c1ccnc(C(C)(C)C(F)(F)F)c1
Outgoing: 125

====

- System: 945468-187-T-J3-PDC spheroids with HUVEC/MSC, viability
- ASSAY PROTOCOL: Anticancer human tumor 945468-187-T-J3-PDC cell line growth inhibition [PI3K];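 further: spheroids exposed to agents for 7 days before viability read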
- DETAILS: curve of first compound; second compound 1 µM
pIC50: −log10 of the molar value.
Assignment: determine reported pIC50 for the given compounds.

# COMPOUND, pIC50
rows = [
    ("C[C@@H](NC(=O)c1ncnc(N)c1Cl)c1ncc(C(=O)Nc2cc(C(F)(F)F)c(Cl)cn2)s1 + CC(Nc1ncnc2nc[nH]c12)c1cc2cccc(Cl)c2c(=O)n1-c1ccccc1", "< 5.00"),
    ("CC(Cn1ccc(-c2ccc(C#N)c(Cl)c2)n1)NC(=O)c1cc(C(C)O)[nH]n1 (stereo not given) + CC(Nc1ccc2c(c1)OCCn1cc(N3C(=O)OCC3C(F)F)nc1-2)C(N)=O", "< 5.00"),
    ("C=CC(=O)N1CCN(c2nc(=O)n(-c3c(C)ccnc3C(C)C)c3nc(-c4c(O)cccc4F)c(F)cc23)C(C)C1 (stereo not given) + Cc1nc(NC(=O)N2CCCC2C(N)=O)sc1-c1ccnc(C(C)(C)C(F)(F)F)c1", "< 5.00"),
    ("CC1(C)CCC(Nc2ncc(C(F)(F)F)c(-c3c[nH]c4c(P(C)(C)=O)c(C#N)ccc34)n2)CN1 (stereo not given) + COc1c(OCCCN2CCOCC2)ccc2c3n(c(=NC(=O)c4cnc(N)nc4)nc12)CCN3", "> 7.50"),
]

Let us move to another entry and its pIC50.
Incoming: Fill blank: measured pIC50 of the compound Cn1nccc1Nc1nccc(-c2ccn(C(CO)c3ccc(Cl)c(F)c3)c(=O)c2)n1 (stereo not given) + CC(Nc1ccc2c(c1)OCCn1cc(N3C(=O)OCC3C(F)F)nc1-2)C(N)=O is ____.
Outgoing: < 5.00
